- System tested: T1, cynomolgus PD-1 (#PD1-C52H5, AcroBiosystems) (cynomolgus monkey, UniProt B0LAJ3 25-170)
- T1 construct: bought; also called cynomolgus monkey PD-1; not shown: the vendor's tag on the recombinant protein (AcroBiosystems #PD1-C52H5)
- T1 sequence (B0LAJ3 entry or part of it limits assumed, form in doubt): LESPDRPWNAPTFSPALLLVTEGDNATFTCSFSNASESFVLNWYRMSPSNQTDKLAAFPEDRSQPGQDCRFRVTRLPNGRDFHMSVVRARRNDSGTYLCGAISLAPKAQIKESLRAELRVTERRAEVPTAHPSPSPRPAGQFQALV
- Test description: SPR, PD-1 on captured IgG1
Metric name: kon

// below: answered binders
1) JZW468 (antibody, human IgG1, V domains shown, human IgG1) VH: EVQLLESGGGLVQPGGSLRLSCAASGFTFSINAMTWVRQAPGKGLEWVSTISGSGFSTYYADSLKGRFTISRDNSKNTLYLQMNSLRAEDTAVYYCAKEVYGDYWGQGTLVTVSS VL: RSVLTQPPSASGTPGQRVSISCSGASSNIGSQSVFWYQQLPGTAPKLLIYSNNQRPSGVPDRFSGSKSGTSASLAISGLRSEDEADYYCAAWDDQLSIWVFGGGTKLTVL = 302000 M⁻¹ s⁻¹
2) FHX509 (antibody, human IgG1, V domains shown, human IgG1) VH: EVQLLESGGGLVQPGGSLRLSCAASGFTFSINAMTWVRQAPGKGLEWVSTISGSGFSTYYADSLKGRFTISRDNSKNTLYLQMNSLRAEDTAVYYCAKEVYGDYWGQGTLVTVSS VL: RSVLTQPPSASGTPGQRVSISCSGASSNIGSQSVFWYQQLPGTAPKLLIYSNNQRPSGVPDRFSGSKSGTSASLAISGLRSEDEADYYCAAWDDSLSAWVFGGGTKLTVL = 341000 M⁻¹ s⁻¹

In: Record request: kon value, item KYC847 (antibody, human IgG1, V domains shown, human IgG1) VH: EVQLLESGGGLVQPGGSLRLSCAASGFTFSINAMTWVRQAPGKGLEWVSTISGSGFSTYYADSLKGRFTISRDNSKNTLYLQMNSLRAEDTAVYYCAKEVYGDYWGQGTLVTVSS VL: RSVLTQPPSASGTPGQRVSISCSGASSNIGSQSVFWYQQLPGTAPKLLIYSNNQRPSGVPDRFSGSKSGTSASLAISGLRSEDEADYYCAAWDDSLTIWVFGGGTKLTVL
Out: 233000 M⁻¹ s⁻¹
